system: LOU-NH91; assay: relative viability (nuclei count vs DMSO), 5 days (fraction); higher = more cells survive; details: first compound 2.53 µM
Please respond with reported relative viability for every item in the list.
Lab note: jot down the number only; don't add units.

Request: State the recorded relative viability for this entry: C=C1C(=O)O[C@@H](CCCCCCCC)[C@@H]1C(=O)O [C-75] + C[C@]1(O)C[C@@H](c2nc(-c3ccc4ccc(-c5ccccc5)nc4c3)c3c(N)nccn32)C1 [Linsitinib] (partner 1 µM)
Result: 0.859

Request: Need relative viability, item Oc1nc(-c2ccc(C(F)(F)F)cc2)nc2c1CSCC2 [XAV939] + CC(=O)Nc1cccc(-n2c(=O)n(C3CC3)c(=O)c3c(Nc4ccc(I)cc4F)n(C)c(=O)c(C)c32)c1 [Trametinib] (partner 0.02 µM)
Result: 0.742

Request: What does the record list as relative viability for Oc1nc(-c2ccc(C(F)(F)F)cc2)nc2c1CSCC2 [XAV939] + Nc1nc2[nH]cc(CCc3ccc(C(=O)N[C@@H](CCC(=O)O)C(=O)O)cc3)c2c(=O)[nH]1 [Pemetrexed] (partner 0.2 µM) ?
Result: 0.349

Request: What does the record list as relative viability for Oc1nc(-c2ccc(C(F)(F)F)cc2)nc2c1CSCC2 [XAV939] + CS(=O)(=O)CCNCc1ccc(-c2ccc3ncnc(Nc4ccc(OCc5cccc(F)c5)c(Cl)c4)c3c2)o1 [Lapatinib] (partner 2 µM) ?
Result: 0.628

Request: Quick one: relative viability of C=C1C(=O)O[C@@H](CCCCCCCC)[C@@H]1C(=O)O [C-75] + N=C(N)NC(=N)NCCc1ccccc1 [Phenformin] (partner 250 µM) ?
Result: 0.532

---

Answer each item with its documented relative viability.
test system: EPLC-272H; experiment: relative viability (nuclei count vs DMSO), 5 days (fraction); higher = more cells survive; details: first compound 0.4 µM

Request: Which relative viability is listed for O=C(O)c1ccc(-c2c[nH]c3ncc(-c4ccccc4)cc23)cc1C1CCCC1 + CS(=O)(=O)N1CCN(Cc2cc3nc(-c4cccc5[nH]ncc45)nc(N4CCOCC4)c3s2)CC1 [Pictilisib] (partner 1 µM) ?
Result: 0.266

Request: Returns the measured relative viability for the input compound. Input: O=C(O)c1ccc(-c2c[nH]c3ncc(-c4ccccc4)cc23)cc1C1CCCC1 + CC(C)C[C@H](NC(=O)[C@H](Cc1ccccc1)NC(=O)c1cnccn1)B(O)O [Bortezomib] (partner 0.002 µM)
Result: 0.931

Request: # lookup: relative viability of O=C(O)c1ccc(-c2c[nH]c3ncc(-c4ccccc4)cc23)cc1C1CCCC1 + CC1(C)CCC(c2ccc(Cl)cc2)=C(CN2CCN(c3ccc(C(=O)NS(=O)(=O)c4ccc(N[C@H](CCN5CCOCC5)CSc5ccccc5)c(S(=O)(=O)C(F)(F)F)c4)cc3)CC2)C1 [Navitoclax] (partner 0.5 µM)
Result: 1.06

Request: Bench note: what relative viability did O=C(O)c1ccc(-c2c[nH]c3ncc(-c4ccccc4)cc23)cc1C1CCCC1 + COc1cc2c(Oc3ccc(NC(=O)C4(C(=O)Nc5ccc(F)cc5)CC4)cc3F)ccnc2cc1OCCCN1CCOCC1 [Foretinib] (partner 0.25 µM) show?
Result: 0.585

Request: Quick check: relative viability of O=C(O)c1ccc(-c2c[nH]c3ncc(-c4ccccc4)cc23)cc1C1CCCC1 + Cc1nc(NC(=O)N2CCC[C@H]2C(N)=O)sc1-c1ccnc(C(C)(C)C(F)(F)F)c1 [Alpelisib] (partner 2 µM) ?
Result: 0.949

Request: Quick one: relative viability for O=C(O)c1ccc(-c2c[nH]c3ncc(-c4ccccc4)cc23)cc1C1CCCC1 + C[C@@H](Oc1cc(-c2cnn(C3CCNCC3)c2)cnc1N)c1c(Cl)ccc(F)c1Cl [Crizotinib] (partner 1 µM) ?
Result: 0.989

Request: Value lookup for relative viability; key = O=C(O)c1ccc(-c2c[nH]c3ncc(-c4ccccc4)cc23)cc1C1CCCC1 + O=C(CCCCCCC(=O)Nc1ccccc1)NO [Vorinostat] (partner 1 µM)
Result: 0.483

Request: Could you share which relative viability value was measured for O=C(O)c1ccc(-c2c[nH]c3ncc(-c4ccccc4)cc23)cc1C1CCCC1 + CCNC(=O)c1noc(-c2cc(C(C)C)c(O)cc2O)c1-c1ccc(CN2CCOCC2)cc1 [Luminespib] (partner 0.01 µM) ?
Result: 0.21
